Origin of values: patent US7879848B2

System: UniProt P27487 | Read-out: IC50
Sequence (P27487 whole entry): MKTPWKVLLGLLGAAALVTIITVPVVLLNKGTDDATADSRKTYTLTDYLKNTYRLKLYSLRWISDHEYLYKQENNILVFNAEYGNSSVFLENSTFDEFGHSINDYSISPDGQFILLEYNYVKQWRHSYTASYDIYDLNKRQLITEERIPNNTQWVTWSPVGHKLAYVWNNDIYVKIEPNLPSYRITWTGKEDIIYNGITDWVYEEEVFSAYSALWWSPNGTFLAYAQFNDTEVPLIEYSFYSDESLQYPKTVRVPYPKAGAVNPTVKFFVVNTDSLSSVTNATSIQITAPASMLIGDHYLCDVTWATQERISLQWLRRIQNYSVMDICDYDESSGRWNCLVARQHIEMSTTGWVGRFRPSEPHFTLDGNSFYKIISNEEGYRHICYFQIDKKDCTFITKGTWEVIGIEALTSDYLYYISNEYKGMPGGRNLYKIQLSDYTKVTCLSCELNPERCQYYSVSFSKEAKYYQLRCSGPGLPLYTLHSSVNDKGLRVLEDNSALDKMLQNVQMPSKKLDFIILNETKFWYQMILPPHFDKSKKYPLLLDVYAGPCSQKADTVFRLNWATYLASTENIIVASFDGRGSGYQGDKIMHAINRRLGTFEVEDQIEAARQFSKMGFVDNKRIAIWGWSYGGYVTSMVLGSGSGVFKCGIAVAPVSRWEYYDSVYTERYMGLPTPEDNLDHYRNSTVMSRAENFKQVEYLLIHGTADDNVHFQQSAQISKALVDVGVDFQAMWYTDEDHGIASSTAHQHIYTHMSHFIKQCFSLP
assay readout: IC50 (nM)

| compound | IC50 / nM |
| --- | --- |
| C[C@H]1CN(C[C@@H](N)CC(=O)N2CCc3c(nc(C(F)(F)C(F)(F)F)nc3C(F)(F)F)C2)C(=O)CO1 | 57 |
| N[C@@H](CC(=O)N1CCc2c(nc(-c3ccc(F)c(F)c3)nc2C(F)(F)F)C1)CN1CC(F)(F)CCC1=O | 51 |
| CC1=CC(=O)N(C[C@@H](N)CC(=O)N2CCc3c(nc(-c4ccoc4)nc3C(F)(F)F)C2)C1 | 110 |
| C[C@@H]1CCC(=O)N(C[C@@H](N)CC(=O)N2CCc3c(nc(-c4ccc(F)c(F)c4)nc3C(F)(F)F)C2)C1 | 36 |
| CCc1nc2c(c(C(F)(F)F)n1)CCN(C(=O)C[C@H](N)CN1C[C@H](C)OCC1=O)C2 | 27 |

A. CCc1nc2c(c(C(F)(F)F)n1)CCN(C(=O)C[C@H](N)CN1C[C@H](C)CCC1=O)C2
B. CC(C)c1nc2c(c(C(F)(F)F)n1)CCN(C(=O)C[C@H](N)CN1C[C@H](C)OCC1=O)C2
C. CC1CN(C[C@@H](N)CC(=O)N2CCc3c(nc(C(F)(F)F)nc3C(F)(F)F)C2)C(=O)CS1 (stereo partly drawn)
D. CC1CCN(C[C@@H](N)CC(=O)N2CCn3c(nnc3C(F)(F)F)C2)C(=O)C1 (stereo partly drawn)
E. CC1CC(=O)N(C[C@@H](N)CC(=O)N2CCc3c(nc(-c4ccoc4)nc3C(F)(F)F)C2)C1 (stereo partly drawn)
q: Rank the 5 compounds: largest IC50 first, smallest last. State the ranking by listing the labels in the requested order.
a: D, C, E, B, A
(D: 141 nM, C: 85 nM, E: 45 nM, B: 30 nM, A: 13 nM)

I. N[C@@H](CC(=O)N1CCc2c(nc(-c3ccccc3)nc2C(F)(F)F)C1)CN1CC(F)(F)CCC1=O
II. C[C@@H]1CCC(=O)N(C[C@@H](N)CC(=O)N2CCc3c(nc(Cc4ccc(F)cc4)nc3C(F)(F)F)C2)C1
III. C[C@H]1CN(C[C@@H](N)CC(=O)N2CCc3c(nc(-c4ccccc4)nc3C(F)(F)F)C2)C(=O)CO1
IV. N[C@@H](CC(=O)N1CCc2c(nc(C3CC3)nc2C(F)(F)F)C1)CN1CC(F)(F)CCC1=O
V. N[C@@H](CC(=O)N1CCc2ccccc2C1)CN1CCCCC1=O
q: Would you mind ranking these compounds by ascending IC50? State the ranking by listing the labels in the requested order.
a: IV, II, I, III, V

P. C[C@@H]1CCC(=O)N(C[C@@H](N)CC(=O)N2CCc3c(nc(-c4ccsc4)nc3C(F)(F)F)C2)C1
Q. N[C@@H](CC(=O)N1CCc2c(nc(-c3ccoc3)nc2C(F)(F)F)C1)CN1CC(F)(F)CCC1=O
q: Compare P and Q by numeric IC50 and name the larger one. Kindly give the label for the entry you pick.
a: P
